Value source: ChEMBL document CHEMBL1240360

Test system: Human immunodeficiency virus 1
Assay: Antiviral activity against Human immunodeficiency virus 1 subtype E isolate 93TH073 infected in human PBMC cells by cell based assay
Conditions: Human immunodeficiency virus 1, subtype E 93TH073, PBMC
The entries below come with measured EC50 values attached.
Your answer is read as nM, so omit the unit and give the number.

1. Cc1cc(C#N)cc(C)c1Oc1nc(Nc2ccc(C#N)cc2)nc(N)c1Br | 0.21

Next, consider the following compound.
Qu. I'd like to know its EC50. The compound in question is Cc1cc(/C=C/C#N)cc(C)c1Nc1ccnc(Nc2ccc(C#N)cc2)n1
Ans. 0.07

* * *

The entries below come with measured EC50 values attached.
Test system: Human immunodeficiency virus 1
Assay: Antiviral activity against Human immunodeficiency virus 1 subtype A isolate 92UG037 infected in human PBMC cells by cell based assay
Settings: Human immunodeficiency virus 1, subtype A isolate 92UG037, PBMC
State the value, then name its unit.

1) Cc1cc(/C=C/C#N)cc(C)c1Nc1ccnc(Nc2ccc(C#N)cc2)n1 | 0.24 nM

Next, consider the following compound.
Qu. I'd like to know its EC50. The compound in question is Cc1cc(C#N)cc(C)c1Oc1nc(Nc2ccc(C#N)cc2)nc(N)c1Br
Ans. 1.42 nM

* * *

Test system: Human immunodeficiency virus 1
Assay: Antiviral activity against Human immunodeficiency virus 1 subtype A isolate 92UG029 infected in human PBMC cells by cell based assay
Settings: Human immunodeficiency virus 1, subtype A isolate 92UG029, PBMC
ENDPOINT_LABEL: pEC50
Keep in mind that pEC50 stands for -log10 of concentration in molar terms.

1) Cc1cc(C#N)cc(C)c1Oc1nc(Nc2ccc(C#N)cc2)nc(N)c1Br | 8.84

Qu. I'd like to know its pEC50. The compound in question is Cc1cc(/C=C/C#N)cc(C)c1Nc1ccnc(Nc2ccc(C#N)cc2)n1
Ans. 9.36

* * *

System: Human immunodeficiency virus 2
Assay: Antiviral activity against Human immunodeficiency virus 2 ROD infected in human MT4 cells assessed as reduction in virus induced cytopathicity
Format: functional, organism-based
Details: Human immunodeficiency virus 2, ISOLATE ROD
The entries below come with measured EC50 values attached.
Your answer is read as µM, so omit the unit and give the number.

Reference set (2 entries):
1) O=C1Nc2ccc(Cl)cc2[C@@](C#CC2CC2)(C(F)(F)F)O1 | 24.8
2) Cc1cc(/C=C/C#N)cc(C)c1Nc1ccnc(Nc2ccc(C#N)cc2)n1 | 5.22

Next, consider the following compound.
Qu. I'd like to know its EC50. The compound in question is Cc1cc(C#N)cc(C)c1Oc1nc(Nc2ccc(C#N)cc2)nc(N)c1Br
Ans. 5.67

* * *

Tested on: Human immunodeficiency virus 1
Assay: Antiviral activity against Human immunodeficiency virus 1 subtype (H) infected in human MT4 cells assessed as reduction in virus induced cytopathicity
Type: functional, organism-based
The entries below come with measured EC50 values attached.
State the value, then name its unit.

Reference set (2 entries):
1) Cc1cc(C#N)cc(C)c1Oc1nc(Nc2ccc(C#N)cc2)nc(N)c1Br [ETRAVIRINE] | 0.51 nM
2) Cc1ccnc2c1NC(=O)c1cccnc1N2C1CC1 [NEVIRAPINE] | 34.1 nM

Next, consider the following compound.
Qu. I'd like to know its EC50. The compound in question is Cc1cc(/C=C/C#N)cc(C)c1Nc1ccnc(Nc2ccc(C#N)cc2)n1 [RILPIVIRINE]
Ans. 0.24 nM

* * *

Test system: MT4
Assay: Cytotoxicity against human MT4 cells by cell based assay
The entries below come with measured Activity values attached.
Your answer is read as µM, so omit the unit and give the number.

Qu. # query: Activity | item O=C1Nc2ccc(Cl)cc2[C@@](C#CC2CC2)(C(F)(F)F)O1 [EFAVIRENZ] | system: MT4
Ans. 40.02

Qu. # query: Activity | item Cc1cc(/C=C/C#N)cc(C)c1Nc1ccnc(Nc2ccc(C#N)cc2)n1 [RILPIVIRINE] | system: MT4
Ans. 5.91

* * *

Test system: Human immunodeficiency virus 1
Test: Antiviral activity against Human immunodeficiency virus 1 subtype F isolate 93BR019 infected in human PBMC cells by cell based assay
Conditions: Human immunodeficiency virus 1, subtype F isolate 93BR019, PBMC
ENDPOINT_LABEL: pEC50
Keep in mind that pEC50 stands for -log10 of concentration in molar terms.

1) Cc1cc(C#N)cc(C)c1Oc1nc(Nc2ccc(C#N)cc2)nc(N)c1Br | 9.34

Next, consider the following compound.
Qu. I'd like to know its pEC50. The compound in question is Cc1cc(/C=C/C#N)cc(C)c1Nc1ccnc(Nc2ccc(C#N)cc2)n1
Ans. 9.02
